targetUnderTest: AAK1 (Homo sapiens)
Construct: NP_055726.2
protocolText: P81 filter plate assay
Format: biochemical
details: full-length human AAK1, Mu2 substrate, 33P-ATP
Readings of IC50 for the listed compounds

Examples from the recorded data:
COc1nc(C)ccc1-c1cnn2ccc(N3CCN(C(=O)OC(C)C)CC3)nc12 ≤ 10 nM
COc1ncccc1-c1cnn2ccc(NC[C@@H]3CCCN3C(=O)OC(C)C)nc12 ≤ 10 nM
COc1ncccc1-c1cnn2ccc(N3CCN(C(=O)C(C)(C)N)CC3)nc12 ≤ 100 nM
CC(C)OC(=O)N1CCN(c2ccn3ncc(-c4cncc(F)c4)c3n2)CC1 ≤ 10 nM

Shift focus to the following entry.
Task: // Input: CC(C)[C@H](N)C(=O)N1CCN(c2ccn3ncc(-c4cccc(F)c4)c3n2)CC1 . Output its IC50 only.
Output: ≤ 10 nM

---

targetUnderTest: AAK1 (Homo sapiens)
Construct: NP_055726.2
protocolText: P81 filter plate assay
Type: biochemical
details: full-length human AAK1, Mu2 substrate, 33P-ATP
The entries below come with measured IC50 values attached.

Before answering, review these 10 worked examples.
CC(C)OC(=O)N1CCN(c2ccn3ncc(-c4cccc5[nH]cnc45)c3n2)CC1 ≤ 100 nM
CC(C)OC(=O)N1CCN(c2ccn3ncc(I)c3n2)CC1 ≤ 100 nM
COc1ccc(-c2cnn3ccc(N4CC[C@H](N(C)C(=O)OC(C)C)C4)nc23)c(OC)n1 ≤ 100 nM
COc1ncccc1-c1cnn2ccc(N3CCN(C(=O)OC4COC4)CC3)nc12 ≤ 10 nM
FC(F)(F)CN1CCN(c2ccn3ncc(Br)c3n2)CC1 ≤ 100 nM
COc1ncc(F)cc1-c1cnn2ccc(N(C)CCCN(C)C(=O)OC(C)C)nc12 ≤ 10 nM
COc1ncc(F)cc1-c1cnn2ccc(N3CCN(CC(F)(F)F)CC3)nc12 ≤ 1000 nM
COc1ncc(C)cc1-c1cnn2ccc(N3CC[C@H](N(C)C(=O)OC(C)C)C3)nc12 ≤ 10 nM
COc1cc(-c2cnn3ccc(N4CCN(C(=O)OC(C)C)CC4)nc23)ccn1 ≤ 100 nM
COc1ncccc1-c1cnn2ccc(N3CCN(C(=O)OCC(F)(F)F)CC3)nc12 ≤ 10 nM

Query compound follows.
Task: Specify reported IC50 for the compound shown: COc1ncccc1-c1cnn2ccc(N3C[C@H]4C[C@@H](C3)N4C(=O)OC(C)C)nc12
Output: ≤ 100 nM

---

targetUnderTest: AAK1 (Homo sapiens)
Construct: NP_055726.2
protocolText: P81 filter plate assay
Type: biochemical
details: full-length human AAK1, Mu2 substrate, 33P-ATP
readout: IC50

The following compounds have reported results that may help.
CSc1ncccc1-c1cnn2ccc(N3CCN(C(=O)OC(C)C)CC3)nc12 ≤ 100 nM
COc1ncccc1-c1cnn2ccc(N3CCN(CC(F)(F)F)CC3)nc12 ≤ 100 nM
COc1ncccc1-c1cnn2ccc(N(C)CCCN(C)C(=O)OC(C)C)nc12 ≤ 10 nM
COc1ccc(F)cc1-c1cnn2ccc(N3CCN(C(=O)[C@@H](N)C(C)C)CC3)nc12 ≤ 10 nM

Task: Output measured IC50 for this item: CC(C)OC(=O)N1CCN(c2ccn3ncc(-c4cccn(C)c4=O)c3n2)CC1
Output: ≤ 10 nM

Task: Identify measured IC50 associated with COc1ccc(-c2cnn3ccc(N4CCN(C(=O)OC(C)C)CC4)nc23)c(F)n1
Output: ≤ 100 nM

Task: Quick one: give measured IC50 for CC(C)OC(=O)N1CCN(c2ccn3ncc(-c4ccnnc4)c3n2)CC1
Output: ≤ 1000 nM

Task: Read off the recorded IC50 for CC(C)OC(=O)N1CCN(c2ccn3ncc(-c4ccc(F)nc4)c3n2)CC1
Output: ≤ 100 nM

Task: Supply IC50 value. Item: CC(C)OC(=O)N1CCC[C@H]1CN(C)c1ccn2nccc2n1
Output: ≤ 1000 nM

Task: Determine its reported IC50: COc1ncccc1-c1cnn2ccc(OCCN(C)C(=O)OC(C)C)nc12
Output: ≤ 100 nM

---

targetUnderTest: AAK1 (Homo sapiens, UniProt Q2M2I8)
Construct: NP_055726.2
Sequence (Q2M2I8 1-863 isoform Q2M2I8-2): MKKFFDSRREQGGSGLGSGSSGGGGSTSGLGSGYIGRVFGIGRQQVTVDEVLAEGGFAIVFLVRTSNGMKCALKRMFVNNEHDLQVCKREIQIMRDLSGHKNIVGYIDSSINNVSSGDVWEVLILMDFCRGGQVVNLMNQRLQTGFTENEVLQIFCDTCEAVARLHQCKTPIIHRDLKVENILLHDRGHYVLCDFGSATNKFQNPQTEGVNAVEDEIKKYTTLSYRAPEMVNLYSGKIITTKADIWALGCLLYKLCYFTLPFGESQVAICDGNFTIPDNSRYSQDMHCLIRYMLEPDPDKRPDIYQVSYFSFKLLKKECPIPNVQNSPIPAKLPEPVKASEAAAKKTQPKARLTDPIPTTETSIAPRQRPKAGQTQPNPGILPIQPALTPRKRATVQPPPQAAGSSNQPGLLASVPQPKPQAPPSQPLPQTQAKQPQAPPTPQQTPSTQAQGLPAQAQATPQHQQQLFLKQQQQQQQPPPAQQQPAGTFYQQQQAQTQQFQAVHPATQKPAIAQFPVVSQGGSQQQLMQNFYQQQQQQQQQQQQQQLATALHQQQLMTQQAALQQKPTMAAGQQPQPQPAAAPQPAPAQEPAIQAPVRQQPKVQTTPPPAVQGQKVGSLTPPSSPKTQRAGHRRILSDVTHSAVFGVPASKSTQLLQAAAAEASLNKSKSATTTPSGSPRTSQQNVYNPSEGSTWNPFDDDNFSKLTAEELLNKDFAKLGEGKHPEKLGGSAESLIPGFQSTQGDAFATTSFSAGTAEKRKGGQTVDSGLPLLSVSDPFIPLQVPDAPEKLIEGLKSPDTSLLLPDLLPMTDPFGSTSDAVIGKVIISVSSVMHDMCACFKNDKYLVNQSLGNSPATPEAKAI
protocolText: P81 filter plate assay
Type: biochemical
details: full-length human AAK1, Mu2 substrate, 33P-ATP
readout: IC50

Cc1ccc(-c2cnn3ccc(N4CCN(C(=O)OC(C)C)CC4)nc23)cc1F ≤ 100 nM
COc1ncccc1-c1cnn2ccc(N3CCN(C(=O)OC4CCOCC4)CC3)nc12 ≤ 10 nM
COCCOC(=O)N1CCN(c2ccn3ncc(-c4cc(F)ccc4OC)c3n2)CC1 ≤ 10 nM

Task: Return value of IC50 for input CN(C(=O)OC(C)(C)C)[C@H]1CCN(c2ccn3ncc(-c4ccccn4)c3n2)C1 , no commentary.
Output: ≤ 1000 nM

Task: State its IC50 for this molecule: CCOC(=O)N1CCN(c2ccn3ncc(-c4ccc(C)nc4OC)c3n2)CC1
Output: ≤ 10 nM

---

targetUnderTest: AAK1 (Homo sapiens)
Construct: NP_055726.2
protocolText: P81 filter plate assay
Format: biochemical
details: full-length human AAK1, Mu2 substrate, 33P-ATP
pIC50: −log10 of the molar value.
readout: pIC50

These recorded examples may help you get a feel for the data.
COc1ncccc1-c1cnn2ccc(N(C)CCN(C)C(=O)OC(C)C)nc12 ≥ 7.00
COc1nc(C)ccc1-c1cnn2ccc(N3CCN(C(=O)OC(C)(C)C)CC3)nc12 ≥ 8.00
CC(C)OC(=O)N1CCN(c2ccn3ncc(-c4ccc(CN)cc4)c3n2)CC1 ≥ 8.00

Task: Assign pIC50 to the following record: COc1ncccc1-c1cnn2ccc(N3CCN(C(=O)CC(C)C)CC3)nc12
Output: ≥ 8.00

Task: State its pIC50 for this compound: COc1ncccc1-c1cnn2ccc(N3CCN(C(=O)[C@@H](N)[C@@H](C)OC)CC3)nc12
Output: ≥ 8.00

Task: Check the records and state pIC50 for COc1nc(C)ccc1-c1cnn2ccc(N3CCN(C(=O)O[C@@H]4CCOC4)CC3)nc12
Output: ≥ 8.00

---

Documented IC50 across a set of compounds
targetUnderTest: AAK1 (Homo sapiens, UniProt Q2M2I8)
Construct: NP_055726.2
protocolText: HEK281 cell-based assay (CBA)
details: HEK293F cells transfected with full length human AAK1 and AP2M1; phospho-mu2 Western blot; 3 hours incubation

compound	observedResult
COc1ncccc1-c1cnn2ccc(N3CCN(C(=O)O[C@@H]4CCOC4)CC3)nc12	≤ 10 nM

Task: Please list IC50 recorded for the compound [2H]C([2H])([2H])Oc1ncccc1-c1cnn2ccc(N3CCN(C(=O)OC(C)(C)C)CC3)nc12
Output: ≤ 10 nM

Task: Return reported IC50. Input compound: COc1cc(C)ccc1-c1cnn2ccc(N3CCN(C(=O)OC(C)C)CC3)nc12
Output: ≤ 100 nM

Task: Supply recorded IC50 for COc1ncccc1-c1cnn2ccc(N3CCN(C(=O)[C@@H](N)[C@@H](C)OC)CC3)nc12 here.
Output: ≤ 100 nM

Task: In one line, give reported IC50 of the entry COCCOC(=O)N1CCN(c2ccn3ncc(-c4ccc(C)nc4OC)c3n2)CC1 .
Output: ≤ 100 nM

Task: Complete the entry with IC50 for COc1ncccc1-c1cnn2ccc(N3CCN(C(=O)[C@@H]4CCCN4)CC3)nc12
Output: ≤ 100 nM

Task: Item COc1ncccc1-c1cnn2ccc(NCCCOC(C)(C)C)nc12 : provide IC50
Output: ≤ 100 nM

Task: For the compound COCCOC(=O)N1CCN(c2ccn3ncc(-c4cc(F)ccc4OC)c3n2)CC1 , give its measured IC50 value.
Output: ≤ 10 nM

Task: Report IC50, nothing else, for this compound: CCOc1ncccc1-c1cnn2ccc(N3CCN(C(=O)OC(C)(C)C)CC3)nc12
Output: ≤ 10 nM

Task: Quickly give me recorded IC50 for Cc1ccc(-c2cnn3ccc(N4CCN(C(=O)[C@@H](N)C(C)C)CC4)nc23)c(F)c1
Output: ≤ 100 nM

---

targetUnderTest: AAK1 (Homo sapiens, UniProt Q2M2I8)
Construct: NP_055726.2
protocolText: HEK281 cell-based assay (CBA)
details: HEK293F cells transfected with full length human AAK1 and AP2M1; phospho-mu2 Western blot; 3 hours incubation
pIC50: −log10 of the molar value.
readout: pIC50

COc1cccc(-c2cnn3ccc(NC[C@@H]4CCCN4C(=O)OC(C)(C)C)nc23)c1 ≥ 8.00
COCC(C)(C)OC(=O)N1CCN(c2ccn3ncc(-c4cccnc4OC)c3n2)CC1 ≥ 6.00
COc1ccc(F)cc1-c1cnn2ccc(N3CCN(C(=O)OC(C)C)CC3)nc12 ≥ 8.00
COc1ncccc1-c1cnn2ccc(N(C)C[C@@H]3CCCN3C(=O)OC(C)C)nc12 ≥ 8.00
COc1ncc(F)cc1-c1cnn2ccc(N3CCN(C(=O)O[C@@H]4CCOC4)CC3)nc12 ≥ 8.00
COc1cc(C)c(F)cc1-c1cnn2ccc(N3CCN(C(=O)OC(C)C)CC3)nc12 ≥ 8.00

Task: With AAK1 (Homo sapiens, UniProt Q2M2I8) as the test system, provide measured pIC50 for this compound: CCCOC(=O)N1CCN(c2ccn3ncc(-c4ccc(C)nc4OC)c3n2)CC1
Output: ≥ 8.00

Task: Print AAK1 (Homo sapiens, UniProt Q2M2I8) pIC50 for COc1ncc(-c2cnn3ccc(N4CCN(C(=O)OC(C)C)CC4)nc23)c(OC)n1 .
Output: ≥ 7.00

Task: # return pIC50 for CC(C)[C@H](N)C(=O)N1CCN(c2ccn3ncc(-c4ccccc4F)c3n2)CC1 , test system: AAK1 (Homo sapiens, UniProt Q2M2I8)
Output: ≥ 8.00

Task: Give the observed pIC50 of COC[C@H](N)C(=O)N1CCN(c2ccn3ncc(-c4cccnc4OC)c3n2)CC1 for AAK1 (Homo sapiens, UniProt Q2M2I8).
Output: ≥ 8.00

Task: Tell me its pIC50 on AAK1 (Homo sapiens, UniProt Q2M2I8): COc1ncccc1-c1cnn2ccc(NC[C@@H]3CCCN3C(=O)OC(C)C)nc12
Output: ≥ 8.00
